target: GRK2 (Homo sapiens, UniProt P25098); assay: GRK2 Degradation Assay and Western Blot in PAXF1657 cells; type: cell-based; design: endogenous in cells; host or cells: PAXF1657; settings: Conc 3 uM; read-out: Degradation Assay - 3 point: Degradation (%)
Sequence (P25098 whole entry): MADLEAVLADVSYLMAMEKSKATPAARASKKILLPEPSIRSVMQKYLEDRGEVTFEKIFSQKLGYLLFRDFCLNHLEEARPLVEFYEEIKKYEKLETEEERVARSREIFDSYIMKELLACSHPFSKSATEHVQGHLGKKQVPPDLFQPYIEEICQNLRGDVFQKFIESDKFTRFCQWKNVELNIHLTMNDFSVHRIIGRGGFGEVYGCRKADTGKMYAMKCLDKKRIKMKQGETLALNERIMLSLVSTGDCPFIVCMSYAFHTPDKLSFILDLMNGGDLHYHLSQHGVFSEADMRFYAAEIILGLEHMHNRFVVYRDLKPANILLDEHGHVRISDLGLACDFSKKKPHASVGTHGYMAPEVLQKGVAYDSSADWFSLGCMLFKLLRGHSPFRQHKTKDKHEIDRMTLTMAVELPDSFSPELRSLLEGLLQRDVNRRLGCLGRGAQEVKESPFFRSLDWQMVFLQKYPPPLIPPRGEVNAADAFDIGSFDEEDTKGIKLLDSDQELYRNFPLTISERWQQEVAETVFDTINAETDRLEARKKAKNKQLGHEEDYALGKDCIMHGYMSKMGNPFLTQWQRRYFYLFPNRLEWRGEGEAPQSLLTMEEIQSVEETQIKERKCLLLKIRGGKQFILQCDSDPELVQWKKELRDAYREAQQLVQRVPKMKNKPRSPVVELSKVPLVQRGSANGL
VALUE KIND: inhibition at 3 µM

Q: What does the data say about its inhibition at 3 µM? Entry: C[C@@H](NC(=O)c1cccc(NCc2nnc(-c3ccncn3)n2C)c1)c1ccc(OCCCCCCOCCOCCOCCCC(=O)Nc2cccc3c2CN(C2CCC(=O)NC2=O)C3=O)cc1 (stereo partly drawn) [Compound D127]
Result: 78.5%

Q: Look at this compound and give its reported inhibition at 3 µM. C[C@@H](NC(=O)c1cccc(NCc2nnc(-c3ccncn3)n2C)c1)c1cccc(OCCCCCn2cc(CCCC(=O)Nc3cccc4c3CN(C3CCC(=O)NC3=O)C4=O)nn2)c1 (stereo partly drawn) [Compound D157]
Result: 42.3%

Q: Fill in the blank: the reported inhibition at 3 µM of Cc1ncsc1-c1ccc(CNC(=O)[C@@H]2C[C@@H](O)CN2C(=O)[C@@H](NC(=O)CCCCCOCCOCCOCCCCCCOc2cccc([C@@H](C)NC(=O)c3cccc(NCc4nnc(-c5ccncn5)n4C)c3)c2)C(C)(C)C)cc1 [Compound D162] is ____.
Result: 72.9%
